conditions: Ebola virus entry assay, ratio channel readout
Calls of active or inactive are those of the source.
Form entry, call: pick from active, inactive

Examples from the recorded data:
| compound | class |
| --- | --- |
| NC(N)=Nc1nc(CSCC/C(N)=N/S(N)(=O)=O)cs1 | inactive |
| CC(=O)NC[C@H]1CN(c2ccc(N3CCOCC3)c(F)c2)C(=O)O1 | inactive |
| C[C@]12C=CC(=O)N[C@@H]1CC[C@@H]1[C@@H]2CC[C@]2(C)[C@@H](C(=O)Nc3cc(C(F)(F)F)ccc3C(F)(F)F)CC[C@@H]12 | inactive |
| COc1cc(C(=O)NS(=O)(=O)c2ccccc2C)ccc1Cc1cn(C)c2ccc(NC(=O)OC3CCCC3)cc12 | inactive |
| O=C(O[C@H]1CN2CCC1CC2)N1CCc2ccccc2[C@@H]1c1ccccc1 | active |
| C=C[C@H]1CN2CC[C@H]1C[C@H]2[C@H](O)c1ccnc2ccc(OC)cc12 | inactive |
| C[C@@H]1O[C@@H]1P(=O)(O)O | inactive |

Query: Test call for this compound, please: C[N+]1(C)[C@@H]2CC(OC(=O)C(O)(c3cccs3)c3cccs3)C[C@H]1[C@@H]1O[C@@H]12 (stereo partly drawn)
Result: inactive

====

details: Ebola virus entry cell assay, ratio channel
Activity calls are given as the source filed them.
# valid calls are y for active, n for inactive; nothing else

See these solved cases before continuing.
| molecule | class |
| --- | --- |
| CCCCC[C@H](O)/C=C/[C@@H]1[C@H]2C/C(=C/CCCC(=O)O)O[C@H]2C[C@H]1O | n |
| CNNCc1ccc(C(=O)NC(C)C)cc1 | n |
| Nc1nc(NC2CC2)c2ncn([C@@H]3C=C[C@@H](CO)C3)c2n1 | n |

Query: # fetch the recorded call for NC(=O)c1cnccn1 here
Result: n

Query: recorded result category for CC=CC1=C(C(=O)O)N2C(=O)[C@H](NC(=O)[C@H](N)c3ccc(O)cc3)[C@@H]2SC1 in this test
Result: n

Query: How was Nc1ccn(C[C@@H](CO)OCP(=O)(O)O)c(=O)n1 classified in this test?
Result: n

Query: For this molecule, state the assay outcome: C=C1[C@H](CO)[C@@H](O)C[C@@H]1n1cnc2c(=O)[nH]c(N)nc21
Result: n

====

target: Bile acid receptor (Homo sapiens); experiment: qHTS assay for small molecule antagonists of farnesoid X receptor signaling (AID 588526); conditions: HEK293T FXR-UAS-bla, beta-lactamase ratio, antagonist mode; series mostly up to 76.7 µM
Results filed as inconclusive are left out. Activity calls are given as the source filed them. The call rests on the fitted dose curve.
Hello, when you answer, please use one of the following outcomes: active, inactive

Example cases with answers are listed next.
| compound | class |
| --- | --- |
| C[C@]1(O)CC[C@H]2[C@@H]3CCC4=CC(=O)CC[C@]4(C)[C@@]3(F)[C@@H](O)C[C@@]21C | inactive |
| [N-]=[N+]=CC(=O)OC[C@H](N)C(=O)O | inactive |

Query: Could you please tell me the result logged for O=C(O)CCCc1ccc(N(CCCl)CCCl)cc1 in this assay?
Result: inactive

====

assay: Quantitative High-Throughput drug screen in 47 multiple myeloma cell lines against the NCATS MIPE library collection: MM1S_ATCC cell viability assay (AID 1918980); settings: MM1S myeloma viability, CellTiter-Glo ATP luminescence, 48 h; series mostly up to 45.8 µM; further: nearly all actives have a fitted effect of over 45% in size
Inconclusive results are not listed. The source made the active and inactive calls. The call rests on the fitted dose curve; in most records, active means well fitted cell-killing curve with a large enough effect; inconclusive means small, poorly fitted or top-dose-only effect, or effect the other way; inactive means no such curve, though single readings can be large or run the other way.
# valid calls are active, inactive; nothing else

| molecule | class |
| --- | --- |
| C[C@](O)(CS(=O)(=O)c1ccc(F)cc1)C(=O)Nc1ccc(C#N)c(C(F)(F)F)c1 | active |
| CN1C(=O)CCS(=O)(=O)C1c1ccc(Cl)cc1 (stereo not given) | active |
| O=P1(N(CCCl)CCCl)NCCCO1 (stereo not given) | inactive |
| C[C@]12CCC(=O)C=C1CC[C@@H]1[C@H]3CC[C@](C)(O)[C@@]3(C)CC[C@@H]12 | active |

Query: Hi team, can someone confirm the assay call for C[C@]12CC[C@H]3[C@@H](CC[C@@]45O[C@H]4C(O)=C(C#N)C[C@]35C)[C@H]1CC[C@H]2O ?
Result: active

====

assay: qHTS for Inhibitors of the Functional Ribonucleoprotein Complex (vRNP) of Lassa (LASV) Arenavirus: LASV Primary Screen - GLuc reporter signal (AID 1347082); conditions: LASV minigenome vRNP, Gaussia luciferase reporter; series mostly up to 57.5 µM; further: nearly all actives have a fitted effect of over 60% in size
Records with an inconclusive call do not appear. Activity calls are given as the source filed them. Calls come from the whole dose curve; tested in HEK293 reporter line.
endpoint label: activity change, negative = inhibition

// worked examples, activity change, negative = inhibition included
| molecule | activity change, negative = inhibition |
| --- | --- |
| Cc1cccn2c(=O)c(-c3nnn[nH]3)cnc12 | inactive |
| CCOc1nc2cccc(C(=O)O)c2n1Cc1ccc(-c2ccccc2-c2nn[nH]n2)cc1 | inactive |
| Cc1ccc(C(=O)C(=O)O)cc1C | inactive |
| CC(=O)OCC(=O)[C@@]1(O)CC[C@H]2[C@@H]3CCC4=CC(=O)C=C[C@]4(C)[C@@]3(F)[C@@H](O)C[C@@]21C | inactive |
| C[C@@H]1O[C@@H](OC[C@H]2O[C@@H](Oc3c(-c4ccc(O)c(O)c4)oc4cc(O)cc(O)c4c3=O)[C@H](O)[C@@H](O)[C@@H]2O)[C@H](O)[C@H](O)[C@H]1O | inactive |
| NS(=O)(=O)c1cc2c(cc1Cl)NC(C(Cl)Cl)NS2(=O)=O (configuration not stated) | inactive |
| O=C(O)[C@H](O)c1ccccc1 | inactive |
| CC(C)Cn1cnc2c(N)nc3ccccc3c21 | inactive |
| CCCCCCNC(=O)n1cc(F)c(=O)[nH]c1=O | inactive |
| CCOC(=O)C(O)c1ccccc1 (configuration not stated) | inactive |

# return activity change, negative = inhibition for each item in the list
1. C[C@]12CC[C@@H]3c4ccc(OC(=O)N(CCCl)CCCl)cc4CC[C@H]3[C@@H]1CC[C@@H]2O
2. O=C(c1ccccc1)c1ccccc1
3. O=C1c2ccccc2C(=O)c2c1ccc(O)c2O
4. Cc1c(C(=O)NCCO)[n+](=O)c2ccccc2n1[O-]
5. Nc1nc2[nH]cc(CCc3ccc(C(=O)N[C@@H](CCC(=O)O)C(=O)O)cc3)c2c(=O)[nH]1
6. COc1cccc([C@@]2(O)CCCC[C@@H]2CN(C)C)c1
7. CCn1cc(C(=O)O)c(=O)c2cc(F)c(N3CCNC(C)C3)c(F)c21 (configuration not stated)
8. CCCCCCCC/C=C\CCCCCCCC(=O)NCc1ccc(O)c(OC)c1

Result:
1. inactive
2. inactive
3. inactive
4. inactive
5. inactive
6. inactive
7. inactive
8. inactive

State the recorded activity change, negative = inhibition for every item in the following list.
1. CC(C)[N+](C)(C)CC(O)COc1cccc2ccccc12 (configuration not stated)
2. CC(C)CCCC(C)NCCC(C)C (configuration not stated)
3. CCCCOC(=O)c1ccc(N)cc1
4. O=C(N/N=C/c1ccc([N+](=O)[O-])o1)c1cc([N+](=O)[O-])cc([N+](=O)[O-])c1O

Result:
inactive
inactive
inactive
inactive

====

target: Cytochrome P450 2D6 (Homo sapiens); assay: Cytochrome P450 family 2 subfamily D member 6 (CYP2D6) small molecule antagonists: luciferase biochemical (cell-free) qHTS assay (AID 1645840); settings: P450-Glo CYP2D6 enzyme, luciferin luminescence, 1 h; series mostly up to 57.4 µM; further: nearly all actives have a fitted effect of over 55% in size
Inconclusive results are not listed. Activity calls are given as the source filed them. The call rests on the fitted dose curve; in most records, active means well fitted inhibition curve with a large enough effect in the repeat runs; inconclusive means weak or mixed curves; inactive means flat fitted curve, though single readings scatter.
Permitted responses: y (active), n (inactive)

Observe how each entry below is paired with its result.
| molecule | class |
| --- | --- |
| C[C@]12CCC(=O)C=C1CC[C@@H]1[C@H]3CC[C@](C)(O)[C@@]3(C)CC[C@@H]12 | y |
| CCN[C@H](C)Cc1cccc(C(F)(F)F)c1 | y |
| CC(C)N(CCC(C(N)=O)(c1ccccc1)c1ccccn1)C(C)C (stereo not drawn) | n |
| C=CCC1([C@H](C)CCC)C(=O)NC(=O)NC1=O | n |

// next entry
Query: Recorded test outcome, item Clc1ccccc1N1CCNCC1
Result: y

====

tested on: HB3; test: qHTS profiling for inhibitors of Plasmodium falciparum proliferation (AID 504749); further: nearly all actives have a fitted effect of over 60% in size; further: potency means the concentration at half of the fitted maximal effect; conditions: P. falciparum in erythrocytes, SYBR Green DNA, 72 h; series mostly up to 28.7 µM
Inconclusive results are not listed. Active and inactive are the calls of the source. Calls come from the whole dose curve; as a rule, active = well fitted inhibition curve with a large enough effect; inconclusive = small, poorly fitted or top-dose-only effect; inactive = flat fitted curve, though single readings scatter.
endpoint label: Potency

For orientation, consider the following solved cases.
| compound | measured value |
| --- | --- |
| O=C1c2ccccc2C(=O)C1C(=O)C(c1ccccc1)c1ccccc1 | inactive |
| CN1C[C@H](C(=O)N[C@]2(C)O[C@@]3(O)[C@@H]4CCCN4C(=O)[C@H](Cc4ccccc4)N3C2=O)C=C2c3cccc4[nH]cc(c34)C[C@H]21 | 447 nM (active) |
| CC(C)NC(C)C | inactive |
| CCCCCCC(=O)CCCCCC/C=C/C[C@@H](O)[C@H](O)[C@@](N)(CO)C(=O)O | inactive |

Please look at the following compound next.
Query: Could you share what Potency was measured for CN1CCC(O)(c2ccc(F)cc2)C(C(=O)c2ccc(F)cc2)C1 (stereo not given) , tested on HB3?
Result: inactive
